Source listed as patent US8134015B2.

Molecular target: rat NaPi-2b (Rattus norvegicus)
Sequence (Q9JJ09 1-695): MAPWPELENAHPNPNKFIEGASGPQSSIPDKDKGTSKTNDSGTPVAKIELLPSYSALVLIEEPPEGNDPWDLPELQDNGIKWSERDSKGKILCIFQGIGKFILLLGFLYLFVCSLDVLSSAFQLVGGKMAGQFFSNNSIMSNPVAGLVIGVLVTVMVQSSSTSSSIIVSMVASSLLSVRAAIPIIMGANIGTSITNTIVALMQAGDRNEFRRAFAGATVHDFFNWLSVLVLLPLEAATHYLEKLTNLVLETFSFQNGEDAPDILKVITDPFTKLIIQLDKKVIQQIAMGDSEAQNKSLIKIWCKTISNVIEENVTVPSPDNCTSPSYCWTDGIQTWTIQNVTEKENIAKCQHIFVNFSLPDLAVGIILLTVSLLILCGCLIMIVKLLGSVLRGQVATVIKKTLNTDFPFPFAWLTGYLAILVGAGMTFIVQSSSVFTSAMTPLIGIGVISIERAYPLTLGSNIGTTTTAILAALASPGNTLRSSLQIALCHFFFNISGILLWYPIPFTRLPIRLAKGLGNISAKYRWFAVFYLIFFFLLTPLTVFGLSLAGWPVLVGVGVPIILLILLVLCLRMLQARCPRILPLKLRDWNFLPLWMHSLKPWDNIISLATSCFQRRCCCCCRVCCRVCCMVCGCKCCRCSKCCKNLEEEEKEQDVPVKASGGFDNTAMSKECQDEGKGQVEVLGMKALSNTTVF
Test: Sodium-dependent phosphate uptake of Xenopus oocytes which expressed NaPi-2b (32P)
Conditions: Xenopus oocytes expressing rat NaPi-2b, 32P radioactive phosphorus; read-out: IC50 (phosphate uptake inhibitory activity)
pIC50: −log10 of the molar value.
OBSERVATION TYPE: pIC50

Some solved cases for reference:
compound=O=C(Nc1ccc(OCCCCF)cc1C(=O)N/N=C/c1ccc(Cl)c(C(F)(F)F)c1)c1cccc(CSCCO)c1 observation_type=pIC50 result="> 6.00"
compound=CCN(CC)CCN(C)Cc1cccc(C(=O)Nc2ccc(OCC3CCCCC3)cc2C(=O)N/N=C/c2ccc(C)cc2)c1 observation_type=pIC50 result="> 6.00"
compound=Cc1ccc(/C=N/n2c(-c3cccc(CSCCO)c3)nc3ccc(Br)cc3c2=O)cc1C observation_type=pIC50 result="> 5.52"

Item Cc1ccc(/C=N/NC(=O)c2c(C)csc2NC(=O)c2cccc(CN(CC(C)O)CC(C)O)c2)cc1C (centres unmarked) has what recorded pIC50?
> 5.52

Input O=C(Nc1cc2ccccc2cc1C(=O)N/N=C/c1ccc(Cl)c(C(F)(F)F)c1)c1cccc(CN2CCN(CCO)CC2)c1
> 5.52

###

Molecular target: human NaPi-2a (Homo sapiens)
Sequence (Q06495 1-639): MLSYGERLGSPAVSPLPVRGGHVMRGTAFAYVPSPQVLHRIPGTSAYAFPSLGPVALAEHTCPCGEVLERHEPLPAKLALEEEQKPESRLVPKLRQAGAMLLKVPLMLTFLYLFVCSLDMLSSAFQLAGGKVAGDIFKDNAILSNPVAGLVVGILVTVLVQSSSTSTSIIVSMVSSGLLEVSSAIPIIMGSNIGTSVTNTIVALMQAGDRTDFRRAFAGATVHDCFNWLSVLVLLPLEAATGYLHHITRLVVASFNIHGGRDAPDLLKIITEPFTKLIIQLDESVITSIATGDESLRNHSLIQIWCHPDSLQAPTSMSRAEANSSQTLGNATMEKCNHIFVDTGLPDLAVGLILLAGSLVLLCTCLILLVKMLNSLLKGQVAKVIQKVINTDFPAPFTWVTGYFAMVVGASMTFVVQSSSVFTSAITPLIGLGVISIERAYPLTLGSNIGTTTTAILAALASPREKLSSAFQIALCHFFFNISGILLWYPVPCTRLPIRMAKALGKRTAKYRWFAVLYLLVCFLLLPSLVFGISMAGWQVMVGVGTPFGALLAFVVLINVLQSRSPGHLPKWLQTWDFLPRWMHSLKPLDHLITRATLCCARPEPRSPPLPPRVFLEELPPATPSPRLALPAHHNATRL
Assay: Sodium-dependent phosphate uptake of Xenopus oocytes which expressed NaPi-2a (32P)
Settings: phosphate uptake, Xenopus oocytes expressing human NaPi-2a; five concentration levels
OBSERVATION TYPE: IC50 (µM)

compound="Cc1csc(NC(=O)c2cccc(CN3CCC4(CC3)OCCO4)c2)c1C(=O)N/N=C/c1cccc(F)c1 [Compound 835]" quantitative_result=11
compound="COc1ccc(/C=N/NC(=O)c2cc(N3CCCCC3)ccc2NC(=O)c2cccc(CSCCC(=O)O)c2)cc1 [Compound 890]" quantitative_result=1.33

I. Cc1ccc(/C=N/NC(=O)c2c(C)csc2NC(=O)c2cccc(CN3CCN(c4ncccn4)CC3)c2)cc1 [Compound 827]
II. O=C(Nc1sc2c(c1C(=O)N/N=C/c1cccc(F)c1)CCCC2)c1cccc(CN2CCC(O)CC2)c1 [Compound 636]
Which record shows the lower IC50: the first, I , or the second, II ? Answer format: the label of the selected item.
II
(II: 5.3 µM, I: 24.4 µM)

###

Target: rat NaPi-2b (Rattus norvegicus)
Assay: Sodium-dependent phosphate uptake of Xenopus oocytes which expressed NaPi-2b (32P)
Conditions: Xenopus oocytes expressing rat NaPi-2b, 32P radioactive phosphorus; read-out: IC50 (phosphate uptake inhibitory activity)
Where a name gives a salt, the structure may show the parent alone.
OBSERVATION TYPE: IC50 (µM)

1. O=C(Nc1ccccc1C(=O)N/N=C/c1ccc(O)cc1)c1cccc(F)c1
2. CCN(CC)CCN(C)Cc1cccc(C(=O)Nc2ccc(OCCCCF)cc2C(=O)N/N=C/c2ccc(C)cc2)c1
3. O=C(Nc1ccc(Br)cc1C(=O)N/N=C/c1cccc(F)c1)c1ccco1
4. COc1ccccc1/C=N/NC(=O)c1ccccc1NC(=O)c1ccc(OC)c(OC)c1
5. O=C(Nc1ccc(Cl)cc1C(=O)N/N=C/c1ccc(Cl)c(C(F)(F)F)c1)c1cccc(CSc2nc[nH]n2)c1
Can you order these entries from above by IC50? Start with the largest number and work down. Please express your ranking as an ordered list of the labels.
4, 1, 3, 2, 5
(4: 79.9 µM, 1: 11.4 µM, 3: 3.07 µM, 2: 1.07 µM, 5: 0.52 µM)

P. COc1ccc(/C=N/NC(=O)c2cc(Br)ccc2NC(=O)c2ccc(CN(CC(C)O)CC(C)O)cc2)cc1 (stereo not drawn)
Q. Cc1ccc(/C=N/NC(=O)c2c(C)csc2NC(=O)c2cccc(CN3CCC(O)CC3)c2)cc1
Please indicate which has the smaller reported IC50: P , or Q . Mark your answer with the label of the selected entry.
Q
(Q: 3.6 µM, P: 12.8 µM)

A. COc1ccc(C(=O)Nc2ccccc2C(=O)N/N=C/C=C/c2ccccc2)cc1OC
B. CCOCCN(CCOCC)Cc1ccc(C(=O)Nc2ccc(Br)cc2C(=O)N/N=C/c2cccc(F)c2)cc1
C. CCN(CC)CCN(C)Cc1cccc(C(=O)Nc2ccc(N3CCOCC3)cc2C(=O)N/N=C/c2ccc(OC)cc2)c1
Arrange items by their IC50 values in increasing order. Please write the labels in the order that was asked for.
C, B, A
(C: 2.57 µM, B: 4.24 µM, A: 9.11 µM)

I. COc1ccc(/C=N/NC(=O)c2cc(Cl)ccc2NC(=O)c2ccc(CN(C)CCO)cc2)cc1
II. COc1ccc(C(=O)Nc2ccc(Cl)cc2C(=O)N/N=C/c2cccc(F)c2)cc1OC
Please let me know which one, I or II , has a lower measured IC50 value. // respond with label for picked entry
II
(II: 1.29 µM, I: 9.2 µM)

I. CCN(CC)CCN(CCN(CC)CC)Cc1cccc(C(=O)Nc2sc3c(c2C(=O)N/N=C/c2ccc(Cl)c(C(F)(F)F)c2)CCCC3)c1 [Compound 855, hydrochloride]
II. COc1ccc(C(=O)Nc2ccc(Br)cc2C(=O)N/N=C/c2ccc(O)cc2)cc1OC
I need your help: which of the pair I , II has higher IC50? Answer by quoting the chosen item's label.
II
(II: 3.77 µM, I: 1.75 µM)

A. Cc1cc(/C=N/NC(=O)c2ccccc2NC(=O)c2cccnc2)oc1C
B. CCN(CC)CCN(C)Cc1cccc(C(=O)Nc2sccc2C(=O)N/N=C/c2ccc(OC)cc2)c1
C. CCN(CC)CCN(C)Cc1cccc(C(=O)Nc2ccc(OCC3CCCCC3)cc2C(=O)N/N=C/c2ccc(OC)cc2)c1
D. COc1ccc(/C=N/NC(=O)c2cc(Br)ccc2NC(=O)c2ccc(OC)c(OC)c2)cc1Br
Place the items in sequence of falling IC50. Returns: the labels arranged in the requested order.
B, A, C, D
(B: 15.3 µM, A: 4.05 µM, C: 1.42 µM, D: 0.51 µM)

###

Target: rat NaPi-2b (Rattus norvegicus)
Construct: expressed in transfected cells; host or cells: Xenopus oocytes injected with cRNA
Assay: Sodium-dependent phosphate uptake of Xenopus oocytes which expressed NaPi-2b (32P)
Format: cell-based
Details: phosphate uptake, oocytes expressing rat NaPi-2b; 300 μM, determined from inhibition curve
OBSERVATION TYPE: inhibition at 300 µM (%)

Worked cases, inhibition at 300 µM given:
molecule=Cc1ccc(/C=N/NC(=O)c2scc(C)c2NC(=O)c2cccc(CSCCCO)c2)cc1 quantitative_result=40.2
molecule=CCOCCN(CCOCC)Cc1ccc(C(=O)Nc2ccc(Br)cc2C(=O)N/N=C/c2ccc(F)cc2)cc1 quantitative_result=61.5
molecule="Cc1ccc(/C=N/NC(=O)c2cc(OCC(O)CN3CCCCC3)ccc2NC(=O)c2cccc(CN(CC(C)O)CC(C)O)c2)cc1C (stereo not shown)" quantitative_result=72.6
molecule=CN(CCCNCc1ccc(C(=O)Nc2ccc(Br)cc2C(=O)N/N=C/c2cccc(F)c2)cc1)c1ccccc1 quantitative_result=73.3
molecule=COc1ccc(C(=O)Nc2cc(OC)c(OC)cc2C(=O)N/N=C/c2ccccc2C)cc1OC quantitative_result=50.4
molecule=Cc1cccc(/C=N/NC(=O)c2ccccc2NC(=O)c2cccnc2)c1 quantitative_result=32.4

P. Cc1csc(C(=O)N/N=C/c2ccc(Cl)c(C(F)(F)F)c2)c1NC(=O)c1cccc(CN(CC(C)O)CC(C)O)c1 (stereo not shown)
Q. Cc1ccc(/C=N/NC(=O)c2cc(Cl)ccc2NC(=O)c2cnc3ccccc3n2)cc1C
R. COc1ccc(C(=O)Nc2ccc(Br)cc2C(=O)NNCc2ccc(C)c(C)c2)cc1OC
Rank the items in ascending order with respect to inhibition at 300 µM. Give the order by naming the labels one after another as requested.
P, Q, R
(P: 41.2%, Q: 59.1%, R: 85.7%)

a. O=C(Nc1ccc(Cl)cc1C(=O)N/N=C/c1ccc(Cl)c(C(F)(F)F)c1)c1cccc(CSCc2ccco2)c1
b. COc1ccc(C(=O)Nc2ccccc2C(=O)N/N=C/c2ccccc2F)cc1OC
# min-compare on inhibition at 300 µM between a and b Write the label of whichever entry you select.
a

A. Cc1ccc(/C=N/NC(=O)c2cc(Br)ccc2NC(=O)c2ccc(CN3CCN(c4ccccn4)CC3)cc2)cc1
B. CCN(CC)CCN(C)Cc1cccc(-c2nc3ccc(N4CCCN(C)CC4)cc3c(=O)n2/N=C/c2ccc(OC)cc2)c1
Could you determine which record has the numerically smaller inhibition at 300 µM? Candidates: A and B // respond with label for picked entry
B
(B: 37.6%, A: 53.9%)
